Target: human TRPV1 (Homo sapiens (Human))
Sequence (Q8NER1 whole entry): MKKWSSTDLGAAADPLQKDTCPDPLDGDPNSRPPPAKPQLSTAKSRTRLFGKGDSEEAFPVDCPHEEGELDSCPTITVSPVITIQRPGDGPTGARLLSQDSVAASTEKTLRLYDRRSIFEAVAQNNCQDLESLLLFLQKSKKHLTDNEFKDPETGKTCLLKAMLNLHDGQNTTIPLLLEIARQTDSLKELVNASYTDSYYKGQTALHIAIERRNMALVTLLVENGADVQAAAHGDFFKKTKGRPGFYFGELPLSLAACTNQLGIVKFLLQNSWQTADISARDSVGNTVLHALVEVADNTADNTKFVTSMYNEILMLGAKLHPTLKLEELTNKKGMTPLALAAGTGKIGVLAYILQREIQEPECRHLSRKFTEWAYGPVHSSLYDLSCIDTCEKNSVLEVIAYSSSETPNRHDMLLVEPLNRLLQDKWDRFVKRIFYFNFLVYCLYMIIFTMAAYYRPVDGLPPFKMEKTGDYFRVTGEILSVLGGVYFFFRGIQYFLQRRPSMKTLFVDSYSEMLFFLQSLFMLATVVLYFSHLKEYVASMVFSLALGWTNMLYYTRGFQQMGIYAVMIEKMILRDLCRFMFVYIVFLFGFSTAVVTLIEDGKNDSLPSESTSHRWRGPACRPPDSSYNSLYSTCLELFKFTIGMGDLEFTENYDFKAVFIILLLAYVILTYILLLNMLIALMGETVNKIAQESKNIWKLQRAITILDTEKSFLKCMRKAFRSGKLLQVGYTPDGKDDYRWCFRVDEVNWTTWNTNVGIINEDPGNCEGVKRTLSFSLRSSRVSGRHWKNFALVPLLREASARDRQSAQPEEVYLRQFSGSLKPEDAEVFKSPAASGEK
Assay: Capsaicin Activation Assay (intracellular Ca2+, FLIPR)
Type: cell-based
Settings: recombinant HEK293 cells expressing hTRPV1, 50 nM capsaicin
measurementType: IC50 (µM)

>>> observedmeasurement("COCC1(COC)C[C@@H](NC(=O)Nc2cccc3c2ccc(=O)n3C)c2cc(F)ccc2O1")
0.26
>>> observedmeasurement("O=C1CCc2ccc(NC(=S)N[C@@H]3CC(CF)(CF)Oc4cc(Cl)ccc43)cc2N1")
0.013
>>> observedmeasurement("Cn1c(=O)ccc2c(NC(=O)N[C@@H]3CCOc4cc(C(F)(F)F)ccc43)cccc21")
0.014
>>> observedmeasurement("C[C@@]1(CF)C[C@@H](NC(=O)Nc2ccc3c(c2)NC(=O)CO3)c2ccc(Cl)cc2O1")
0.12
>>> observedmeasurement("CCC1(CC)C[C@@H](NC(=O)Nc2ccc3c(c2)NC(=O)N(CCO)C3)c2ccc(Cl)cc2O1")
0.169
>>> observedmeasurement("CN1C(=O)CCc2ccc(NC(=O)N[C@@H]3CC(C)(C)Oc4ccc(F)cc43)cc21")
0.053
>>> observedmeasurement("O=C1CCc2ccc(NC(=O)N[C@@H]3CCc4cc(Cl)ccc43)cc2N1")
0.078
>>> observedmeasurement("CC1(C)C[C@@H](NC(=O)Nc2ccc3c(c2)NC(=O)CO3)c2ccc(F)c(F)c2O1")
0.12
